- System: SW-620 colon
- Assay procedure: NCI-60 one-dose screen, 48 h
- Condition description: 10 µM unless noted
Compounds without any hit were thinned out: in the full panel of roughly 83,000, 20% have a hit. Calls of active or inactive are those of the source. How the source made its calls: active means growth percent below 10; inactive means the rest.
Write down one outcome, taken from 1 (yes) (active), 0 (no) (inactive)

Incoming: Recorded test call requested for Cc1cc(C(=O)c2ccccc2)c(C)c2c1[nH]c1ccc(Cl)cc12
Outgoing: 0 (no)

Incoming: Hello, I am checking results. What call was entered for C=CCOC1=CC(=O)c2ccccc2C1=O ?
Outgoing: 0 (no)

Incoming: How did this test come out for N#Cc1c(-c2cccc(Cl)c2)cc(-c2cccc(Cl)c2)[nH]c1=O ?
Outgoing: 0 (no)

Incoming: Name the outcome recorded for N#Cc1c(-c2ccccn2)[nH]c(=S)[nH]c1=O in the assay.
Outgoing: 0 (no)

Incoming: Returns: the outcome recorded for COc1ccc(-c2nc(SCCC(C)C)nc(N/N=C\c3cccc(Cl)c3)c2C#N)cc1 in this assay.
Outgoing: 0 (no)

Incoming: I would be grateful if you could indicate the recorded call for Cn1cc2c(c1)-c1nc(Nc3ccccc3)ncc1CC2 .
Outgoing: 0 (no)

Incoming: Fill in: this test's call for COc1cccc(C(=O)NCCCNc2cc(-c3cn(-c4ccccc4)nc3-c3cccc(OC)c3)ccn2)c1 is ___
Outgoing: 0 (no)

Incoming: Record request — test call for C[C@]12CC[C@@H]3c4cc(OC(F)F)c(O)cc4CC[C@H]3[C@@H]1CC[C@@H]2OS(N)(=O)=O
Outgoing: 0 (no)

Incoming: Hi, sorry to bother you, what did the test record for Cc1nn(-c2ccccc2)c(Cl)c1/C=C(/NC(=O)c1ccccc1)c1nc2ccccc2[nH]1 ?
Outgoing: 0 (no)

Incoming: How did this test come out for Cc1c(C(=O)OC(=NC2CCCCC2)NC2CCCCC2)sc2c1c(=O)nc1c(C#N)n[nH]n12 ?
Outgoing: 0 (no)

Incoming: For O=C(Nc1cccc(C(F)(F)F)c1)Nc1cccc(C(F)(F)F)c1 , what call appears in the results of this test?
Outgoing: 0 (no)

Incoming: Fill in: this test's call for Cc1ccc(CCC(=O)Nc2ncc(Cc3cc(Cl)ccc3Cl)s2)o1 is ___
Outgoing: 0 (no)

Incoming: Please indicate how the test categorized CCCCCCCCCOc1c(OC)cc(C2CC(=O)Nc3c2c(C)nn3-c2nc3ccccc3[nH]2)cc1OC (stereo not drawn) .
Outgoing: 1 (yes)

Incoming: In this assay, the call recorded for COc1ccc2occ(C3=C(c4c[nH]c5ccccc45)C(=O)N(O)C3=O)c2c1 was what?
Outgoing: 0 (no)

Incoming: How did this test come out for OC(COc1ccccc1Cl)COc1ccccc1Cl ?
Outgoing: 0 (no)

Incoming: How was C[n+]1cc2c3c(ccc2c2ccc4cc5c(cc4c21)OCO5)OCO3 classified in this test?
Outgoing: 1 (yes)

Incoming: Outcome logged for COc1nc2c(c(=O)n1C)CN(c1ccccc1)C(=O)CN2C in this assay:
Outgoing: 0 (no)

Incoming: Please indicate how the test categorized COc1cccc(-c2nc3sccn3c2-c2ccnc(NCCNS(=O)(=O)c3cccc(Cl)c3)c2)c1 .
Outgoing: 0 (no)

Incoming: Write down the call the test reported for this compound. Item: Cc1cc(NCc2cc(Nc3ccnc4cc(Cl)ccc34)ccc2F)nc(N2CCN(c3ccccc3)CC2)n1
Outgoing: 0 (no)

Incoming: How was COc1ccccc1N1C(=O)/C(=C/C2=Cc3ccccc3OC2)SC1=S classified in this test?
Outgoing: 0 (no)

Incoming: Which outcome was assigned to Cc1cc(C)c2c(-c3nnc(N)s3)cc(=O)oc2c1 in this test?
Outgoing: 0 (no)

Incoming: Assay result, entry CC(=O)O[C@]1(C(C)=O)CCC2C3C[C@H](C)C4=CC(=O)CC[C@]4(C)C3CC[C@@]21C (stereo partly drawn) — outcome?
Outgoing: 0 (no)

Incoming: Fill in: this test's call for O=C1/C(=C/c2ccccc2)CCc2nc3ccccc3c(/C=C/c3ccc(Cl)cc3)c21 is ___
Outgoing: 0 (no)

Incoming: Lab log entry: O=C(Nc1ccc(-n2cc(-c3ccncc3)c(-c3ccc(Cl)c(O)c3)n2)cc1)N1CCOCC1 — outcome as called in the assay?
Outgoing: 0 (no)

Incoming: For COC(=O)/C=C1\S/C(=N\NS(=O)(=O)c2ccc(C)cc2)N(c2ccccc2)C1=O , what call appears in the results of this test?
Outgoing: 0 (no)

Incoming: Fill in: this test's call for N[C@@H](CCCCNCC(=O)O)C(=O)O is ___
Outgoing: 0 (no)

Incoming: Assay outcome for O=c1[nH]c2ccccc2n1C1CCN(CCOc2ccccc2)CC1 : what was it?
Outgoing: 0 (no)

Incoming: # outcome recorded in this test, key = CC/C=C\C[C@H](O)C/C=C1/C(=O)C=C[C@@H]1C/C=C\CCCCO
Outgoing: 1 (yes)

Incoming: Look up the recorded call for COc1cc(/C=N/NC(=O)Cn2c(C(C)C)nc3ccccc32)ccc1O in this test.
Outgoing: 0 (no)

Incoming: Which result was noted for this compound in the test: COc1ccc2[nH]c(O)c(C(=Nc3ccc(N(C)C(=O)CN4CCN(C)CC4)cc3)c3ccccc3)c2c1
Outgoing: 0 (no)

Incoming: Please indicate how the test categorized Cc1ccc(Nc2ccc(Nc3ccc(C)cc3)c3c2C(=O)c2cccc(O)c2C3=O)cc1 .
Outgoing: 0 (no)

Incoming: Write down the call the test reported for this compound. Item: Cc1ccc(S(=O)(=O)Oc2cc(OS(=O)(=O)c3ccc(C)cc3)cc(OS(=O)(=O)c3ccc(C)cc3)c2)cc1
Outgoing: 0 (no)

Incoming: Status in this test for C=C(C)[C@@H]1CC[C@]2(C)[C@H](CC=C3[C@@H]4CC(C)(C)CC[C@]4(C(N)=O)CC[C@]32C)[C@@]1(C)CCC#N ?
Outgoing: 0 (no)

Incoming: Returns: the outcome recorded for CN(Cc1cnc2nc(N)nc(N)c2n1)c1ccc(C(=O)N[C@@H](CCc2nn[nH]n2)c2nn[nH]n2)cc1 in this assay.
Outgoing: 0 (no)

Incoming: Given NC[C@H](O)c1ccc(O)c(O)c1 , state the outcome it received in this test.
Outgoing: 0 (no)

Incoming: Call for entry CC(C)(C)OC(=O)Nc1ccc2c(c1)C(NC(=O)Nc1cccc(C#N)c1)CC(C)(C)O2 (stereo not drawn) :
Outgoing: 0 (no)

Incoming: What outcome does the record of this test show for CS(=O)(=O)c1ccc(Nc2nc(N[C@H]3CCCC[C@H]3N)nc3cc[nH]c(=O)c23)cc1 ?
Outgoing: 1 (yes)

Incoming: Called result for CN(C)c1ccc(-c2ccc3[nH]c(=O)nc(-c4ccccc4)c3c2)cn1
Outgoing: 0 (no)
